Target: T1, Cyno FRα ECD-Avi-His (cynomolgus monkey, biotin on the Avi-tag (BirA) in the HTRF assays)
T1 construct: Soluble region with C-terminal Avi and His tags
T1 sequence (chain, as listed by the source limits assumed): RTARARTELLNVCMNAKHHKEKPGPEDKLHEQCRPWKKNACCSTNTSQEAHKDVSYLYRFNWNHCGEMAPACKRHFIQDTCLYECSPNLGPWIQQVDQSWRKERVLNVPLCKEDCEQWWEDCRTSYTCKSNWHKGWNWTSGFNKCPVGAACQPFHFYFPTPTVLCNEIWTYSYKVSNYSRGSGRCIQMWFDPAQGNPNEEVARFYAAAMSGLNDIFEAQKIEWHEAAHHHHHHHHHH
Assay: SPR (Biacore T200)
Experimental: Protein A was covalently immobilised to a CM5 chip surface using standard amine coupling techniques at a concentration of 50 μg/ml in 10 mM Sodium acetate, pH 4.0. […] Multiple buffer-only injections were made under the same conditions to allow for double reference subtraction of the final sensorgram sets, which were analysed using Biacore T200 Evaluation Software to derive equilibrium dissociation constants.
outcomeMeasure: fold difference of affinity, cyno FRα against human FRα

*Q* Identify fold difference of affinity, cyno FRα against human FRα associated with the binder AB1370035 hIgG1 (antibody, V domains shown) VH: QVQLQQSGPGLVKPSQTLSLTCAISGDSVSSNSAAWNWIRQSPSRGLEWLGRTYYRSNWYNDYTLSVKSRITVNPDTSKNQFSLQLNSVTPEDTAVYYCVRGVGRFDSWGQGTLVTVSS VL: DIQMTQSPSTLSASVGDRVIITCRASQSISSWLAWYQQKPGKAPKLLIYKASSLESGVPSRFSGSGSGTEFTLTITSLQPDDFASYYCQEYKTYSIFTFGPGTKVDIKR
*A* ≤ 2.5 fold
